System: LXRb homodimer (NR concentration 270 nM)
Assay: PBM binding z-score (relative to random genomic background probes); higher = stronger binding; sequences stand for … in GC…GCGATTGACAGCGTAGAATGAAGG
Hi there, I'd appreciate the recorded PBM binding z-score for every entry that follows.

Answered examples (3):
>>> df
                       entry_sequence  meas_value
0  CGAATTAGGTCAAGGACAGTGAATCTCCGCACGC       0.123
1  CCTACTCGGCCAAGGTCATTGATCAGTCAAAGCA        0.93
2  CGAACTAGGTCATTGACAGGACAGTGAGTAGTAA      -0.291

Could I get PBM binding z-score for every one of these entries?
1. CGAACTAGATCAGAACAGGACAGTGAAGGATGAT
2. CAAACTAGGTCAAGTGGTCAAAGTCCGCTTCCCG
3. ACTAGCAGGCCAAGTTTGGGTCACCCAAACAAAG

Result ::
-0.0768
0.597
-0.589

====

Hi there, I'd appreciate the recorded PBM binding z-score for every entry that follows.
System: RARa homodimer (NR concentration 270 nM)
Test: PBM binding z-score (relative to random genomic background probes); higher = stronger binding; sequences stand for … in GC…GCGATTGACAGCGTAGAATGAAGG
Numbers only.

In [3]: df
Out[3]:
                       entry_sequence  meas_value
0  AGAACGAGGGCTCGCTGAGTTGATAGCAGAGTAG       -1.21
1  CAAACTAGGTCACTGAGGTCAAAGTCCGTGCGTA       0.887
2  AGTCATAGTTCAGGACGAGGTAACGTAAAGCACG       0.185
3  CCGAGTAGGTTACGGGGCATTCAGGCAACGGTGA      -0.584
4  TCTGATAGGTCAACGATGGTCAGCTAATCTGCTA        1.12
5  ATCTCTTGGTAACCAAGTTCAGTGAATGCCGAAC      -0.473
6  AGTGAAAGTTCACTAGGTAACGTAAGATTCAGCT       0.607
7  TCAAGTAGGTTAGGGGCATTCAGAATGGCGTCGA       0.676
8  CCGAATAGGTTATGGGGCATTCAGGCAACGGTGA      0.0562
9  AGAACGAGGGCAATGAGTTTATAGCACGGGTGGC      -0.186

Could I get PBM binding z-score for every one of these entries?
1. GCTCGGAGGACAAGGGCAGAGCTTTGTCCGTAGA
2. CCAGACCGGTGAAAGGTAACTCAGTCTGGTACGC
3. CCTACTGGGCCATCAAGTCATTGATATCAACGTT
4. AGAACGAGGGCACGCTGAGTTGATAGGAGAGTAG
5. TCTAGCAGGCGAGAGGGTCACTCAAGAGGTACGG
6. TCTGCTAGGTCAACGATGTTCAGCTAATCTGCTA
7. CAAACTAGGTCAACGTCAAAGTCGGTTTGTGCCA
8. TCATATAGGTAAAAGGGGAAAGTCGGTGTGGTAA

Result ::
1. -1.17
2. -0.377
3. 0.00429
4. -0.652
5. -0.11
6. -0.343
7. 0.739
8. 2.27

Could I get PBM binding z-score for every one of these entries?
1. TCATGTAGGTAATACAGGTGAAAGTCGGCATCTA
2. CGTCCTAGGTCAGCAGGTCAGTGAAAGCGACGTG
3. TCATATAGGTAATACAAGTGAAAGTCGGCATCTA

Result ::
0.465
-0.501
1.79

Could I get PBM binding z-score for every one of these entries?
1. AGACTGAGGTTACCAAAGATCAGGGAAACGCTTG
2. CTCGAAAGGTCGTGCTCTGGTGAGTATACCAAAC
3. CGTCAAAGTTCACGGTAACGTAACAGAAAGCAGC
4. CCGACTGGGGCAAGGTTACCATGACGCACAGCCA
5. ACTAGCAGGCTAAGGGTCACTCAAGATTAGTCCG

Result ::
1. -0.111
2. 0.169
3. 1.67
4. -0.183
5. 0.291

====

Test system: RARa:RXR (NR concentration 270 nM, RXRa partner concentration 90 nM)
Assay: PBM binding z-score (relative to random genomic background probes); higher = stronger binding; sequences stand for … in GC…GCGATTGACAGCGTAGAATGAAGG
ENDPOINT: PBM binding z-score
Numbers only.

>>> print(df.to_string())
                       entry_sequence                                    system  meas_value
0  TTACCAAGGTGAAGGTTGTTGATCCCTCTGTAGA  RARa:RXR (NR concentration 270 nM, RXRa partner concentration 90 nM)       0.887
1  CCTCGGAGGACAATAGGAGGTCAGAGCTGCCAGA  RARa:RXR (NR concentration 270 nM, RXRa partner concentration 90 nM)        2.08
2  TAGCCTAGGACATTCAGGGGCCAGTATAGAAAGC  RARa:RXR (NR concentration 270 nM, RXRa partner concentration 90 nM)      -0.598
3  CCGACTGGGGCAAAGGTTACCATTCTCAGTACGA  RARa:RXR (NR concentration 270 nM, RXRa partner concentration 90 nM)        3.87
4  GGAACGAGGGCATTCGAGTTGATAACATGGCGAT  RARa:RXR (NR concentration 270 nM, RXRa partner concentration 90 nM)       0.915
5  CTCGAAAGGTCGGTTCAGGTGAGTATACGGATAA  RARa:RXR (NR concentration 270 nM, RXRa partner concentration 90 nM)        2.11
6  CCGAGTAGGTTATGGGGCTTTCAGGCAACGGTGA  RARa:RXR (NR concentration 270 nM, RXRa partner concentration 90 nM)      -0.019
7  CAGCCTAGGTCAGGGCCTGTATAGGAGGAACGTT  RARa:RXR (NR concentration 270 nM, RXRa partner concentration 90 nM)       0.971
8  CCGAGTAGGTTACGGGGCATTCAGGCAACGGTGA  RARa:RXR (NR concentration 270 nM, RXRa partner concentration 90 nM)       0.636
9  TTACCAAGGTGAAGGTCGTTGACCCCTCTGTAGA  RARa:RXR (NR concentration 270 nM, RXRa partner concentration 90 nM)        5.73

Could I get PBM binding z-score for every one of these entries?
1. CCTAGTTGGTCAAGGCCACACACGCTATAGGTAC
2. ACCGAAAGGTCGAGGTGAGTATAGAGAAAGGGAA
3. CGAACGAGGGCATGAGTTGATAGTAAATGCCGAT
4. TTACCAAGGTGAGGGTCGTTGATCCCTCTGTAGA
5. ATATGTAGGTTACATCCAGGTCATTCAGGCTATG
6. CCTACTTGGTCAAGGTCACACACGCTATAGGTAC
7. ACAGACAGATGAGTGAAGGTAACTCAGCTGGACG

Result ::
0.34
3
0.644
1.36
3.35
4.29
0.101

Could I get PBM binding z-score for every one of these entries?
1. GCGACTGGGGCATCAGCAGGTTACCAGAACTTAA
2. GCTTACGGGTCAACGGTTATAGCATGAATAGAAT
3. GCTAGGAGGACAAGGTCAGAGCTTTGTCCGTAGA
4. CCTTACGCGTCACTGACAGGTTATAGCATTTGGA

Result ::
1. 0.483
2. 4.02
3. 1.89
4. 0.676

Could I get PBM binding z-score for every one of these entries?
1. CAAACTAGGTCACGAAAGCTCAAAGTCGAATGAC
2. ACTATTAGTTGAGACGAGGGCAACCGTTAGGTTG
3. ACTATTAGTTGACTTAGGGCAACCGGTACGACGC
4. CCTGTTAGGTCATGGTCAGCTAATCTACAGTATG

Result ::
1. 2.59
2. 0.588
3. 0.898
4. 2.9

Could I get PBM binding z-score for every one of these entries?
1. AGTCAAAGTTCATCTAGGAAACGTAAGATATGCT
2. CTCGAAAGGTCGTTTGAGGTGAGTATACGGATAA

Result ::
1: 3.18; 2: 4.16

Could I get PBM binding z-score for every one of these entries?
1. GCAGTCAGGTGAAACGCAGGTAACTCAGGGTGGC
2. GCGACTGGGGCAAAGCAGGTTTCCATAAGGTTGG
3. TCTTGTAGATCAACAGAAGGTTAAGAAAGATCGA
4. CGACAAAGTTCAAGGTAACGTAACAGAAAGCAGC
5. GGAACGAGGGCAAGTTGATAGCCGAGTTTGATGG
6. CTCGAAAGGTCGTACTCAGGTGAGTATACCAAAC

Result ::
[0.159, -0.165, 0.954, 3.27, 0.442, 4.62]

Could I get PBM binding z-score for every one of these entries?
1. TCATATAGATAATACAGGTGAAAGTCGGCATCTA
2. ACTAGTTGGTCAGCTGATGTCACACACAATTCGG
3. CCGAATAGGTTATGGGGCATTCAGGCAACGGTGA
4. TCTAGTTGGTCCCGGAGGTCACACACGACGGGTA
5. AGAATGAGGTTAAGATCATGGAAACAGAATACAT
6. TCGAGTAGGTTACCAATGGAGCATTCAGCTTTCT
7. TCTCGGAGGACACGAAAGGTTAGAGCTCGACATC

Result ::
1. 1.04
2. 0.497
3. 0.892
4. 4.64
5. 1.79
6. -0.35
7. 1.52

Could I get PBM binding z-score for every one of these entries?
1. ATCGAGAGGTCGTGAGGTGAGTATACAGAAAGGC
2. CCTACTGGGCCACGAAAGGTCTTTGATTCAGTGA
3. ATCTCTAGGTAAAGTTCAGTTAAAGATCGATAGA
4. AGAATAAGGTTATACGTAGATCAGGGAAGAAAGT
5. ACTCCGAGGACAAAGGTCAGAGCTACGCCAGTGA

Result ::
1. 3.54
2. 0.284
3. 1.81
4. 1.66
5. 5.82
